assay_system: T1, recombinant human LAG-3-Fc (human, UniProt P18627 23-450)
T1 construct: also called human LAG-3 (R&D Systems cat no. 2319-L3); LAG3 antigen
T1 sequence: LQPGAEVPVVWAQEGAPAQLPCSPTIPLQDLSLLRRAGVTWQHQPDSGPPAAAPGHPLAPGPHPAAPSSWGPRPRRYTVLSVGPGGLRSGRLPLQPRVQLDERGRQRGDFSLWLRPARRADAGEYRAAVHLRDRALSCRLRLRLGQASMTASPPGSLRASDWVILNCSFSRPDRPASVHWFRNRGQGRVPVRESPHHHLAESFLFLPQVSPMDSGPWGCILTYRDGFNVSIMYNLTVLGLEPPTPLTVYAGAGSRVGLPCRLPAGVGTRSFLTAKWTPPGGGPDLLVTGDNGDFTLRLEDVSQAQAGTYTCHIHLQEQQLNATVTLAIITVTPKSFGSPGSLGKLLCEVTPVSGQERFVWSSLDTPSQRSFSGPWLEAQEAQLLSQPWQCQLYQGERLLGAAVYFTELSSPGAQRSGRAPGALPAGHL
experiment_description: BLI (Octet); human LAG-3-Fc amine-coupled to biosensor, VH in solution, 1:1 fit
Quick list: koff per entry.
In your response, put the unit directly after the numeric value.

variant 3 of VH 1.1 (VHH, 4) VHH: EVQLVESGGGVVRPGGSLRLSCAASGFTFDDYGMSWVRQAPGKGLEWVSGIHWNGGSTGYADSVKGRFTISRDNAKNSLYLQMNSLRAEDTALYYCARIPREDCSSASCYTDAIDFWGPGTMVTVSS: 0.000899 s⁻¹

--- query ---
Task: Please look up its koff: variant 7 of VH 1.1 (VHH, 4) VHH: EVQLVESGGGVVRPGGSLRLSCAASGFTFDDFGMSWVRQAPGKGLEWVSGIHWNGGNTGYADSVKGRFTISRDNAKNSLYLQMNSLRAEDTALYYCARIPREDCSVAACYTDAIDFWGPGTMVTVSS
Output: 0.000847 s⁻¹
